Documented IC50 across a set of compounds
# SYSTEM_UNDER_TEST: Fatty acid synthase (Homo sapiens, UniProt P49327)
# Sequence (P49327 whole entry, the tested form may be a part): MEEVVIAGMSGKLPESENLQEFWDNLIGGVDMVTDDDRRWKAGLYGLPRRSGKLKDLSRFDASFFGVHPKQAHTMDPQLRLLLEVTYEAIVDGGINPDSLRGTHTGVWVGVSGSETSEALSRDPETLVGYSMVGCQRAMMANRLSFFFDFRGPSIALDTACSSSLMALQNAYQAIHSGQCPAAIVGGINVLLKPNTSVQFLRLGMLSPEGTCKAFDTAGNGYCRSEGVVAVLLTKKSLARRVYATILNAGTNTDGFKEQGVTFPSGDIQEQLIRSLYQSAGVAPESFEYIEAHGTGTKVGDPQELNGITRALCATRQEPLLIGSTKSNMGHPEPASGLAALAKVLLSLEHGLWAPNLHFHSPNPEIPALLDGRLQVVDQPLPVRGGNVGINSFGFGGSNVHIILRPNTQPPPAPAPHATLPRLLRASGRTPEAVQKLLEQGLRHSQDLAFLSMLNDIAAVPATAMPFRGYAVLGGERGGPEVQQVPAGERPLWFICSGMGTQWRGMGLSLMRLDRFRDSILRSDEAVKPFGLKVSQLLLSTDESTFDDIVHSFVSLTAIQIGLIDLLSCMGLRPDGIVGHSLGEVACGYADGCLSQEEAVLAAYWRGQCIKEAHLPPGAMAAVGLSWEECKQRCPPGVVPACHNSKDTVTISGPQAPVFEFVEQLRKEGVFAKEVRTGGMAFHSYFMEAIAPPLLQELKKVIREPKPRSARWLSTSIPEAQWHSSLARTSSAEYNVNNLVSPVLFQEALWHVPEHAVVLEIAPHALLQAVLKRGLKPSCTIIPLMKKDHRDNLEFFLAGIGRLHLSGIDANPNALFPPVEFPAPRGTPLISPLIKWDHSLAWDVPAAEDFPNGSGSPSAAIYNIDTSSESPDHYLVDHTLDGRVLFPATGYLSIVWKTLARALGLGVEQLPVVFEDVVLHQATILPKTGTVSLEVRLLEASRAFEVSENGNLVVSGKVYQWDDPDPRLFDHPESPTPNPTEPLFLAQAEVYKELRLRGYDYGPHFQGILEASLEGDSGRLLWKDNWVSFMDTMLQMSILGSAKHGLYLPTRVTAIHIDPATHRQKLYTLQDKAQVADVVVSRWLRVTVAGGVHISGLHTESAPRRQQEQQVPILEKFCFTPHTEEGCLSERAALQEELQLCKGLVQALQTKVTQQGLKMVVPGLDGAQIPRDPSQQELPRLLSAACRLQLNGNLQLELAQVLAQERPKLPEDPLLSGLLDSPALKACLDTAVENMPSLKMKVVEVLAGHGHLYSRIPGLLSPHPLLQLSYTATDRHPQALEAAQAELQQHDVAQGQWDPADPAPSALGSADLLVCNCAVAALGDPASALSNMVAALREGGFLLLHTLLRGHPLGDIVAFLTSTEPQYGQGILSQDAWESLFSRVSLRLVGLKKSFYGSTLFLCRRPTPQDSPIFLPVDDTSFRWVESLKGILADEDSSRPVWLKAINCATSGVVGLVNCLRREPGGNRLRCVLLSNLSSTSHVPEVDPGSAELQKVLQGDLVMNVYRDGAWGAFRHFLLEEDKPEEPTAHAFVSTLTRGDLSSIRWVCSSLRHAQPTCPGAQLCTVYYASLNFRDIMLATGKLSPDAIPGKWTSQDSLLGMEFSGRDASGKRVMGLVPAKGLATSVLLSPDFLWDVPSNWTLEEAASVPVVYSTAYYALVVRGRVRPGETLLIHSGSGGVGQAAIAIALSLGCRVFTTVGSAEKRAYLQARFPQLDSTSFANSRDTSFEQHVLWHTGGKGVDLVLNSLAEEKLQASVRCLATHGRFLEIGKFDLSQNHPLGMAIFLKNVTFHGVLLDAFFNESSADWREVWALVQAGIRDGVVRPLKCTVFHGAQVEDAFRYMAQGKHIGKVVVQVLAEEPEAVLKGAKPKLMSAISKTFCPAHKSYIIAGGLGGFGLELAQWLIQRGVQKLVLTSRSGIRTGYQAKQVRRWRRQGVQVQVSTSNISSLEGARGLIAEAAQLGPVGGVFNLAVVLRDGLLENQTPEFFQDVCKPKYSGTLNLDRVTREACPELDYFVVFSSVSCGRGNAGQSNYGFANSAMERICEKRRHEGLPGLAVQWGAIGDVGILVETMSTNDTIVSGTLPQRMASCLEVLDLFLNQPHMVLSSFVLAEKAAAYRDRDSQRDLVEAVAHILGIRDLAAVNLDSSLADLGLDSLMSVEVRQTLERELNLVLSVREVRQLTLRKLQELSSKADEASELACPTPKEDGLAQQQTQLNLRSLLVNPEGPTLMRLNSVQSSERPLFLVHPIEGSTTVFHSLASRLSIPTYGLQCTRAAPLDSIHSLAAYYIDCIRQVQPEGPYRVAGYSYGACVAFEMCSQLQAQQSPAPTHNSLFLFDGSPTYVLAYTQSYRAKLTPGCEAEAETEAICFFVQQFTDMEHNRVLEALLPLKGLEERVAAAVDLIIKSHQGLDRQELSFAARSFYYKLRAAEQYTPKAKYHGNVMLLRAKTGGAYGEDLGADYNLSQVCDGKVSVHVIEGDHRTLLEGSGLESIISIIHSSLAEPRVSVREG
# EXPERIMENT_NOTES: FAS thioesterase domain inhibitors, dose response, biochemical, endpoint fluorescence intensity, uHTS hits (AID 624327);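 further: fluorescence from hydrolysis of an O-methyl fluorescein acyl ester substrate by the enzyme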
# Format: functional
Activity calls are given as the source filed them. No stated cut-off is given here; in the data, active = IC50 of 20 µM or less and inactive = more.

COMPOUND | IC50
COc1cc([N+](=O)[O-])cc(/C=N/NC(=O)c2cc(C)nc3ccccc23)c1O | 15.5 µM (active)
O=C(COC(=O)c1cc([N+](=O)[O-])ccc1NCc1ccccc1)NC1CCCCC1 | 1.31 µM (active)
CC(=O)NNc1nc(-c2ccccc2)cs1 | 18.6 µM (active)
O=C(NCCc1ccccc1)C(c1cccs1)N(C(=O)CCl)c1ccc(Cl)cc1 (centres undefined) | 7.91 µM (active)
CN(C)CCCNC(=O)C[C@H]1C[C@H](C(=O)N2CCOCC2)[C@@]2(CCC3CCCC3)c3[nH]c4cc(-c5ccco5)ccc4c3CCN2C1=O | 5.74 µM (active)
CCCOc1ccc(NC(=O)CC2C(=O)N(C)C(=S)N2Cc2cccs2)cc1 (centres undefined) | 9.62 µM (active)
COCCOc1ccc(C(F)(F)F)cc1NC(=O)COC(=O)c1cc([N+](=O)[O-])ccc1N1CCOCC1 | 5.58 µM (active)
Cc1nnc(Sc2cc(NCCO)c([N+](=O)[O-])c3nonc23)s1 | 6.34 µM (active)
Cc1cc(S(=O)(=O)ON2C(=O)c3ccccc3C2=O)ccc1F | 2.43 µM (active)
